test system: MS2 coat protein; experiment: apparent KD of MS2 coat protein; designed switch direction (-1 OFF switch, 1 ON switch): -1; higher = weaker reporter binding; conditions: Eterna round: R95; input ligand: microRNA oligo, concentration not stated
Classify by measured apparent KD of MS2 coat protein: true (1) if it is equal to or exceeds 50 nM, false (0) if it is smaller.

Could you verify whether the entry CUUUUGUGAGGAUAUCAGUAGUAAUACAAUAGUAUUACUAUUGAGAAGGCACAUGAGGAUCACCCAUGUUCCUC [Ex4 344 Omei mod 6] (puzzle: Exclusion 4) shows apparent KD of MS2 coat protein of no less than 50 nM?
false (0)

Decide: is the reported value of apparent KD of MS2 coat protein for AGUAGUAGUAUCCGGUCCUACAUGAGGAUCACCCAUGUAGCUAGACGUGCACGCGAUGCUCGUCAGACUACCAGAUG [salish99_TOv1_r3_045] (puzzle: Sensor v3, turn-off variant 1) equal to or greater than 50 nM?
false (0)

Quick check: does GAUGUGGGUUUCCGGAGGAACAUGAGGAUCACCCAUGUAGAAGUUGGAGGGAUAACGCUUUUUGCUCGUUACACGUG [JR_SV3TOV1_Sub055] (puzzle: Sensor v3, turn-off variant 1) have apparent KD of MS2 coat protein greater than or equal to 50 nM?
true (1)

Check the entry GAGUGACAUGAGGAUCACCCAUGUGAGGAUAUCGGCCGGACCUUGUUAGCUUCCACCGCGAGAAGGCACAUCGG [Exclusion 1 V29] (puzzle: Exclusion 1) : does apparent KD of MS2 coat protein equal or exceed 50 nM?
false (0)

Is apparent KD of MS2 coat protein at least 50 nM? Consider CCAGGCUGUGUGAGGAUAUGCUGGUCCUUGGAUCAGCAGAAGGCACAUGAGGAUCACCCAUGUGAGUAGCUUGG [JL bmx4 3.27] (puzzle: Brourd's mod of Exclusion 4)
false (0)

Say whether AGGUAACAUGAGGAUCACCCAUGUCAGGAUAUCAGUAAGAUGAGUAUAGAAUAGAGUAUGAGAAGGGACUAUAU [Excluse me! 24 - Jieux - Exclusion 1] (puzzle: Exclusion 1) shows apparent KD of MS2 coat protein of 50 nM or more.
false (0)

Is apparent KD of MS2 coat protein for AGAAAAGCCCAUGACCGCAAGCUUUUUGCUUGUCUUACCACAUGAGGAUCACCCAUGUGACAUGGGCUCCUUAUAAU [Atcein] (puzzle: Sensor v3, turn-off variant 2) at or above 50 nM?
false (0)

Form field: apparent KD of MS2 coat protein at least 50 nM? Entry: UUCAUGUGAGGAUAUGUGAUCUGCUUUCUGUGUAGAUGAUCACAGAAGGCACAUGAGGAUCACCCAUGUAGAUC [Ex4 - 3 - 29] (puzzle: Exclusion 4)
true (1)

Identify whether the reported apparent KD of MS2 coat protein of the following sequence is 50 nM or greater: UAUGUUGUUGUGAGGAUAUACUUAGUUUGACCGUAGUAGAAGGCACAUGAGGAUCACCCAUGUAGAUGCUUGGU [JR_BME4_Sub006] (puzzle: Brourd's mod of Exclusion 4)
false (0)

Entry GAUUGACAUGAGGAUCACCCAUGUGAGGAUAUCGGCUGGACCGUGUUGGCUUGCCUUUCGAGAAGGCGCAUAGG [Exclusion 1 V48] (puzzle: Exclusion 1) : is its apparent KD of MS2 coat protein no less than 50 nM?
false (0)

Could you please find out whether AAUAAGCAAGGAUAUACGACGCAGAGCGUCAGUGGGCGAUGACAUGAGGAUCACCCAUGUAGAAGGUGCACAUC [Veisbebi] (puzzle: Exclusion 2) has apparent KD of MS2 coat protein that meets 50 nM or exceeds it?
true (1)

---

system: MS2 coat protein; assay: apparent KD of MS2 coat protein; designed switch direction (-1 OFF switch, 1 ON switch): 1; higher = weaker reporter binding; conditions: input ligand: microRNA oligo, concentration not stated
Answer 0 if apparent KD of MS2 coat protein is under 70 nM, and 1 if it is 70 nM or more.

Hi team, for GUGGAGGGUUGAGGAUAUUGAAUACAUAUGUUUAACAUGAGGAUCACCCAUGUGGGUUGCGGUAUCGAGAAGGUAAAUUACUGG [salish99_SSNG2_r04_036] (Eterna round: R96, puzzle: Same State NG 2) , is the recorded apparent KD of MS2 coat protein at or above 70 nM?
1

Say whether GCGGUACCUAACAUGAGGAUCACCCAUGUUCCGGAAACGGCACAGGAUAUCUGUCCGAAAAGGUCAGAGAAGGGUGAAAUCCGC [Fiskers NG3ss - 93] (Eterna round: R96, puzzle: Same State NG 3) shows apparent KD of MS2 coat protein of 70 nM or more.
0

Could you verify whether the entry GGAGCCGGCACUGAGGAUAUUCAUAUUAAAACAUGAGGAUCACCCAUGUAGGCCAGAAGGCCUUGGGAGAAGGCAGGUCGACUCG [Diqureveri] (Eterna round: R96, puzzle: Same State 2) shows apparent KD of MS2 coat protein of no less than 70 nM?
1

Could you please find out whether UGUAUACAUGAGGAUCACCCAUGUCAACGUAGUCGAGGAUAUGGGCAGCCGUGAGGCGUACCAGAAGGCGAAGAGG [JL-ss1-3.05 ViennaUCT mod] (Eterna round: R96, puzzle: Same State 1) has apparent KD of MS2 coat protein that meets 70 nM or exceeds it?
1

Please check the record GGUGCCAAAUAAGCCUACAUGAGGAUCACCCAUGUAUGUAGGCAGGAUAUCGUAUGCAAAGCAUACGAGAAGGGCCGAGGCACC [Mat - Same State NG 3 - JL Mod - D57] (Eterna round: R96, puzzle: Same State NG 3) and state if its apparent KD of MS2 coat protein is at or above 70 nM.
0

Given the entry AGCUAGUACGAAGGAUAUACAAACAUGAGGAUCACCCAUGUAUACAUGGUUUGUUGUGACUACAUGUAGAAGGUCGUACUAGCA [SameState NG2 #16] (Eterna round: R96, puzzle: Same State NG 2) , answer whether its apparent KD of MS2 coat protein meets or surpasses 70 nM.
1

Does the reported apparent KD of MS2 coat protein for CGUCCAGCCUGAGCUGGACAAAAGCAUGUACAUGAGGAUCACCCAUGUUCAUGUACAAGCUUUUUGCUCGUCUUACC [salish99_208a_r3_094x] (Eterna round: R96, puzzle: Sensor for hsa-mir-208a) fall at or above the 70 nM mark?
0

Textbook exercise: given the entry GGCAAUAUCACAGGAUAUUGGAAAGGAAGUGUACAAGAAGGGUGAUAGGGCCUCAGCAACAUGAGGAUCACCCAUGUACUGAGC [PowerStrip SSNG 1.10] (Eterna round: R96, puzzle: Same State NG 1) , state whether its apparent KD of MS2 coat protein is greater than or equal to 70 nM.
0

Form field: apparent KD of MS2 coat protein at least 70 nM? Entry: GAAGGAUGAGCGUAGGAUAUAGGAGGAGUGACAUGAGGAUCACCCAUGUGGUAGGAGGGAGGGUACUAGAAGGACGAGGAAGAGG [JR_SS2_Sub069] (Eterna round: R96, puzzle: Same State 2)
0

Textbook exercise: given the entry AGUCCAGCGAAAGCUGGACAAAAGCAUGUACAUGAGGAUCACCCAUGUUCAUGUACAAGCUUUUUGCUCGUCUUAAA [Mat - Sensor - JL mod - D95] (Eterna round: R96, puzzle: Sensor for hsa-mir-208a) , state whether its apparent KD of MS2 coat protein is greater than or equal to 70 nM.
0

Determine whether this sequence has apparent KD of MS2 coat protein no lower than 70 nM: UGUACCUUCACAGGAUAUCAUGCGAAAAUUGCGUGAGAAGGGUGAAUACGGUGUUCAUUGUUGCACAUGAGGAUCACCCAUGUA [SameState NG1 #55] (Eterna round: R96, puzzle: Same State NG 1)
1

Reported apparent KD of MS2 coat protein reaches at least 70 nM for AGGCUCAGACGAGGAUAUAUGUGGUCACAUGAGGAUCACCCAUGUCUCGAGCUUCGGCUCGAGGCAUAGAAGGUGUCUGAGCCA [SSNG2/5-C1] (Eterna round: R96, puzzle: Same State NG 2) ?
0

For this sequence, is measured apparent KD of MS2 coat protein 70 nM or higher? GCUAGUAUUAUUGCUAACAUGAGGAUCACCCAUGUAUGUUGGCAGGAUAUCGUUUGCAAAGCAAACGAGAAGGGCUAAACUAGC [Mat - Same State NG 3 - JL Mod - D13] (Eterna round: R96, puzzle: Same State NG 3)
1

Quick check, apparent KD of MS2 coat protein >= 70 nM? AAGAAACAUGAGGAUCACCCAUGUGAUAAUAUGGGAGGAUAUACAAAGACGAAAGUCGAAGUAGAAGGCCUAUGAA [Garnet 43] (Eterna round: R96, puzzle: Same State 1)
0

Has UUGUUUGGUAAAAUACAUGAGGAUCACCCAUGUUAUGGUGCAGAGGAUAUGCAUGUUUGAUUGAAGCAGAAGGCUGUAAGUUGU [JR_SSNG3_Sub036] (Eterna round: R96, puzzle: Same State NG 3) a recorded apparent KD of MS2 coat protein greater than or equal to 70 nM?
0

Could you tell me if the measured apparent KD of MS2 coat protein of UGGCUCAGACGAGGAUAUGAUCAUGGCGCUUCGGCGCAUACAUGAGGAUCACCCAUGUAAAGUGAUCAGAAGGCGUCUGAGCCU [SSNG2/7-A3] (Eterna round: R96, puzzle: Same State NG 2) reaches 70 nM or more?
0

Has UUUGCAUGACGAGGAUAUCAUUUAUAUCUUGAUUGAGAAGGCGUUCUUUUUUUUACCUAACAUGAGGAUCACCCAUGUGACAGU [JR_SSNG1_Sub050] (Eterna round: R96, puzzle: Same State NG 1) a recorded apparent KD of MS2 coat protein greater than or equal to 70 nM?
0
